Data credit: a melting point compilation (Tetko et al.; mined from patent text by program, amines drawn as free bases though some values may be those of a salt)

Parameter melting point: see the listing below.

COMPOUND: CN1C(=O)C(=O)c2cnccc21
VALUE KIND: melting point
RESULT: 140 to 142 °C

COMPOUND: CC(C)(O)Cc1cccc(O)c1
VALUE KIND: melting point
RESULT: 91 to 94 °C

COMPOUND: CCCCc1nc2ccccc2n1CCC(=O)O
VALUE KIND: melting point
RESULT: 177 to 178 °C

COMPOUND: O=C(O)CCC1CCN(C(=O)OCc2ccc([N+](=O)[O-])cc2)CC1
VALUE KIND: melting point
RESULT: 98 to 99 °C

Quick note, melting point for CC(C)OC12NC(=O)C(C)(C(C)C)N1C(=O)c1cccnc12 (stereo not given) landed at 158 to 160 °C

Please fill in: melting point reported for Cc1nsc(OCC(F)(F)F)c1S(N)(=O)=O = 148 to 149 °C

For reference, reported melting point for CC(C)(C)c1cc(C(=O)c2c[nH]c(SC#N)c2SC#N)cc(C(C)(C)C)c1O stands at 143 to 144 °C

melting point recorded for this compound, O=c1c2cccc3c2n(c(=O)n1CCO)-c1cc(C(F)(F)F)ccc1S3=O (stereo not given) , is 205 to 206 °C
